Where do these numbers come from? They come from ChEMBL document CHEMBL5338769.

assay.explanation: AUC(0 to infinity) in Sprague-Dawley rat at 3 mg/kg, iv measured upto 1440 min by LC-MS/MS analysis
Assay type: ADME, organism-based
Set-up: dose 3 mg/kg, time < 1440 min, route iv
experimental.context: in vivo
List of AUC(0-inf) values.
I only need the number, in ng·h/mL, no unit after it.

COc1cc2c3c(c1)-c1ccc(O)cc1CC3NCC2 (configuration not stated) | 974

// next item, AUC(0-inf) requested
Req: Give reported AUC(0-inf) value for COc1cc2c(cc1O)CC1NCCc3cc(OC)c(O)c-2c31 (configuration not stated)
Resp: 112

* * *

List of Activity values.
study.target: Aryl hydrocarbon receptor (Mus musculus, UniProt P30561)
Sequence (P30561 whole entry): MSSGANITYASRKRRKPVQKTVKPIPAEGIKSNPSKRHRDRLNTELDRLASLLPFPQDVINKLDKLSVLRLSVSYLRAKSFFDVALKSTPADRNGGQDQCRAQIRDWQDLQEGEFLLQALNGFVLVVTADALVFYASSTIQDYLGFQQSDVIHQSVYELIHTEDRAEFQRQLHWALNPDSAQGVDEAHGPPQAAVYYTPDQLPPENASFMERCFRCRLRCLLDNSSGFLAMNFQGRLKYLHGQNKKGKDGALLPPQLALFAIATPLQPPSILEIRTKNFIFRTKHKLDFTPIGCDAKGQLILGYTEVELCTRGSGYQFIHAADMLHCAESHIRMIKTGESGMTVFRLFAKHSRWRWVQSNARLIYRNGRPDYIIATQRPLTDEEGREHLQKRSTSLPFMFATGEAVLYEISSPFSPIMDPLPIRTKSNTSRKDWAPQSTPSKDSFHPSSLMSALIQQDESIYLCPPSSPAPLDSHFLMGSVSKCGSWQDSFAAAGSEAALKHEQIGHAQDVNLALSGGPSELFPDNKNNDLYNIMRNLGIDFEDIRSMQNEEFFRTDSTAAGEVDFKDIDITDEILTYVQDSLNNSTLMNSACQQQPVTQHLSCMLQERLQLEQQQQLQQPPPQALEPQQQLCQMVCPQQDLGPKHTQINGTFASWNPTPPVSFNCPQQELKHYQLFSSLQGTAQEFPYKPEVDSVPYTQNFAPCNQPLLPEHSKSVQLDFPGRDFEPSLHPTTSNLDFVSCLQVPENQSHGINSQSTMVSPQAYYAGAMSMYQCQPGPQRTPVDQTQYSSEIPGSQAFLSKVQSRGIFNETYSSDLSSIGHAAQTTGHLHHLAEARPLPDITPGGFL
assay.explanation: Activation of AhR transcription in C57BL/6 mouse naive T cells assessed as increase in CYP1A1 mRNA expression at 3 uM measured after 72 hrs by qRT-PCR analysis relative to control
Type: cell-based
experimental.context: t cell
I only need the number, in %, no unit after it.

// worked examples, Activity included
COc1ccc2c(c1)CC1NCCc3cc(OC)c(OC)c-2c31 (centres undefined) | 152.7
COc1cc2c(cc1O)CC1c3c(cc(O)c(OC)c3-2)CCN1C (centres undefined) | 222
COc1cc2c3c(c1OC)-c1ccc(O)cc1CC3NCC2 (centres undefined) | 150.7

// next item, Activity requested
Req: Give reported Activity value for COc1ccc2c(c1)-c1c(OC)c(OC)cc3c1C(C2)NCC3 (centres undefined)
Resp: 177
